# Run description: Caspase-3/7 induction in CHO-K1 cells by small molecules, qHTS assay (AID 1346980); also: nearly all actives have a fitted effect of over 15% in size
# Experimental conditions: CHO-K1 caspase-3/7 induction, Caspase-Glo luminescence, 17 h; series mostly up to 92.4 µM
Activity calls are given as the source filed them. Calls follow the shape of the dose curve; as a rule, active = well fitted activation curve with a large enough effect in the repeat runs; inconclusive = weak or mixed curves; inactive = flat fitted curve, though single readings scatter.
Experimental endpoint: outcome

Known outcome results, listed for orientation:
CC(=O)CC(=O)N(C)C = inactive
CC(=O)Nc1ccc(CC(=O)O)cc1 = inactive
Nc1cccc(C(F)(F)F)c1 = inactive
COc1ccc([C@@H]2CC(=O)c3c(O)cc(O[C@@H]4O[C@H](CO[C@@H]5O[C@@H](C)[C@H](O)[C@@H](O)[C@H]5O)[C@@H](O)[C@H](O)[C@H]4O)cc3O2)cc1OC = inactive
CC(=O)c1nccs1 = inactive

Switching to the query record.
query: Reported outcome for `C=C(C)CC(C)(C)C` : what is it?
result: inactive

---

# Run description: qHTS assay to identify small molecule agonists of the sonic hedgehog signaling (Shh) pathway - cell viability counter screen (AID 1259366); also: nearly all actives have a fitted effect of over 50% in size
# Experimental conditions: NIH/3T3 Gli1-Luc viability, CellTiter-Fluor, 24 h; series mostly up to 92.4 µM
Records with an inconclusive call do not appear. Calls of active or inactive are those of the source. Calls follow the shape of the dose curve; as a rule, active = well fitted cell-killing curve with a large enough effect in the repeat runs; inconclusive = weak or mixed curves, or effect the other way; inactive = flat fitted curve, though single readings scatter.
Form entry, call: pick from 1 (yes) for active, 0 (no) for inactive

query: Can you look up the reported call for `CC(=O)OCc1ccc2c(c1)OCO2` for me?
result: 0 (no)

query: Check the results log: what was the call for `C=CC(=O)NCOCCCC` ?
result: 0 (no)

query: Would you mind telling me which call this test gave `CCCCC(=O)O` ?
result: 0 (no)

query: Which result was noted for this molecule in the test: `CCCCCNCCCCC`
result: 0 (no)

query: Status in this test for `CCCCCCCCC(=O)O` ?
result: 0 (no)

query: Please share the test call associated with `CCOC(=O)CC(=O)OCC` .
result: 0 (no)

query: Which outcome was assigned to `Cc1ccncc1` in this test?
result: 0 (no)

query: Given `CCCN(CCC)C(=O)SCC` , state the outcome it received in this test.
result: 0 (no)

query: Test call for this molecule, please: `COc1c2ccoc2cc2oc(=O)ccc12`
result: 0 (no)

query: Assay outcome for `CC(C)c1ccc(C(C)C)cc1` : what was it?
result: 0 (no)

query: Kindly provide the recorded test outcome for the following molecule: `NCCNCCNCCN`
result: 0 (no)

query: Returns: the outcome recorded for `Cc1nnc(NS(=O)(=O)c2ccc(N)cc2)s1` in this assay.
result: 0 (no)

query: Returns: the outcome recorded for `COc1ccc([C@@H]2CC(=O)c3c(O)cc(O[C@@H]4O[C@H](CO[C@@H]5O[C@@H](C)[C@H](O)[C@@H](O)[C@H]5O)[C@@H](O)[C@H](O)[C@H]4O)cc3O2)cc1OC` in this assay.
result: 0 (no)

query: Name the outcome recorded for `CC(=O)Nc1ccc(CC(=O)O)cc1` in the assay.
result: 0 (no)

query: Hey, what did the test say about `Cc1ncc(CO)c(CO)c1O` ?
result: 0 (no)

query: Hi, sorry to bother you, what did the test record for `N[C@@H](Cc1cc(I)c(Oc2ccc(O)c(I)c2)c(I)c1)C(=O)O` ?
result: 0 (no)

query: Would you mind telling me which call this test gave `CN=C(NC#N)NCCSCc1nc[nH]c1C` ?
result: 0 (no)

query: What outcome does the record of this test show for `COC(=O)/C=C\C(=O)OC` ?
result: 0 (no)

query: Hi, sorry to bother you, what did the test record for `NC(=O)NC(N)=O` ?
result: 0 (no)

query: Could you check what this test reported for `CCCCCCC(=O)O` ?
result: 0 (no)

query: What did the test return for `CC[N+](CC)(CC(=O)Nc1c(C)cccc1C)Cc1ccccc1` ?
result: 0 (no)

query: // outcome(item) with item = `CCCCCCCCCCCCCC(=O)O`
result: 0 (no)

query: For `O=c1c(O)c(-c2ccc(O)c(O)c2)oc2cc(O)cc(O)c12` , what call appears in the results of this test?
result: 1 (yes)

query: Test call for this molecule, please: `CCc1cccc(O)c1`
result: 0 (no)

query: Which result was noted for this molecule in the test: `COCN(COC)c1nc(N(COC)COC)nc(N(COC)COC)n1`
result: 0 (no)

query: Name the outcome recorded for `Nc1cccc(N)n1` in the assay.
result: 0 (no)

query: Could you please tell me the result logged for `CC/C=C(\C(=O)N[C@@H]1C(=O)N2C(C(=O)OCOC(=O)C(C)(C)C)=C(COC(N)=O)CS[C@H]12)c1csc(N)n1` in this assay?
result: 0 (no)

query: For this molecule, state the assay outcome: `OCC(CO)(CO)CO`
result: 0 (no)

query: Called result for `OC[C@H]1O[C@@H](Oc2ccc(O)cc2)[C@H](O)[C@@H](O)[C@@H]1O`
result: 0 (no)
